Assay: Induction of nitrous oxide release in MeOH/TBS buffer at pH 10 at 25 mM after 0.5 hrs by gas chromatographic analysis in presence of glutathione
Format: physicochemical
Conditions: pH 10, 0.5 h, 25000 µM
Measured Quantity: Activity (%)
Give bare numbers, in %.

Molecule	Activity, %
CONS(=O)(=O)CCO/N=[N+](\[O-])NC(C)C	17.3
CC(C)N[N+]([O-])=N[O-].[Na+]	8.5
COS(=O)(=O)CCO/N=[N+](\[O-])NC(C)C	1.2
CC(C)N/[N+]([O-])=N/OCCS(=O)(=O)NOCc1ccccc1	24.2

Now, please, on to the next compound.
Form field Activity, entry "CC(C)N/[N+]([O-])=N/OCCS(C)(=O)=O" : 0.4
